assay: Inhibition of Endothelin A receptor mediated (ET-1) release of arachidonic acid from rabbit renal artery vascular smooth muscle cells
PROPERTY NAME: pIC50
The meaning of pIC50 here: minus log10 of the concentration in molar units.

Please give measured pIC50 of the following entry: COc1ccc(C(=O)/C(Cc2cc(OC)c(OC)c(OC)c2)=C(\C(=O)O)c2ccc3c(c2)OCO3)cc1C 9.01
